# credit: patent US20170355757A1

molecular target: T1, human C5 R885H-mmh (human, UniProt P01031 19-1676); experiment: SPR, mAb captured via anti-hFc, 37C
T1 construct: also called human C5 variant R885H
experimental endpoint: 100 nM Human C5 R885H-mmh Bound (RU)

Query: 100 nM Human C5 R885H-mmh Bound (RU); subject: H4H12163P (antibody, human IgG4, V domains shown, Human IgG4 Fc with S108P hinge mutation (H4H)) VH: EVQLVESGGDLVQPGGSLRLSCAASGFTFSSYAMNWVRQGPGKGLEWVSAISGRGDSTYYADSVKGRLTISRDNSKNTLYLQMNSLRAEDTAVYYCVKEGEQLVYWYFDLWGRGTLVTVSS VL: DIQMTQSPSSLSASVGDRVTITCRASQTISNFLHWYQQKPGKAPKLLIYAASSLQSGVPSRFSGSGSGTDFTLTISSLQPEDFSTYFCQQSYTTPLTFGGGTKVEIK
85 RU
